B1: TEKT4 (parent)
chain: LREKLLEAEQSLRNLEDIHMSLEK

Variants of: B1
assay.procedure: protein stability index of a GFP-peptide fusion (GPS, HEK-293T) (PSI 1-6); higher = more stable;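 further: lentivirally expressed fusions sorted by FACS into six bins by GFP to DsRed ratio, PSI derived from sequencing read proportions per bin multiplied by bin number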
test.settings: c terminus: a fixed tail appended
Classify as follows. Reported protein stability index greater than or equal to 3: 1. Reported protein stability index below: -1.

Consider the worked cases shown below.
mutant.designation | class.assignment
E7V | -1
L22I | -1
D17S | -1
L5D | 1
K4N | 1

Next, consider the following variant.
Record "E9T" ; criterion: protein stability index no lower than 3. Met? -1
